// provenance: patent US9169254B2

target-desc: human PTH1 receptor (Homo sapiens)
assay-info: In vitro cAMP signal activity in HKRK-B7 cells (LLC-PK1 cells overexpressing the human PTH1 receptor)
Format: cell-based
experimental-conditions: HKRK-B7 cells; compound at 1×10^−3 M; cAMP produced as percentage of that produced by hPTH(1-34) at 100 nM
// returns NO unless cAMP production activity (%) is strictly below 70%, in which case YES

Would you kindly verify if cAMP production activity (%) of `O=C1NC(c2cccc(OC(F)(F)F)c2)=NC12CCN(S(=O)(=O)CCc1ccc3c(ccn3C[C@H](O)CO)c1)CC2` is strictly less than 70%?
NO

Would you kindly verify if cAMP production activity (%) of `CCCCCC[C@@H]1CCC[C@H](C2=NC3(CCN(S(=O)(=O)CCc4c(C)cc(N(C)C(N)=O)cc4C)CC3)C(=O)N2)C1` is strictly less than 70%?
NO

Would you kindly verify if cAMP production activity (%) of Cc1cc(CN2C(=O)CNC2=O)cc(C)c1CCS(=O)(=O)N1CCC2(CC1)N=C(C1CCC(CCC(F)(F)F)CC1)NC2=O (stereo not shown) is strictly less than 70%?
NO

Would you kindly verify if cAMP production activity (%) of `Cc1cc(C(=O)N(C)C)ccc1CCS(=O)(=O)N1CCC2(CC1)N=C(C#Cc1ccccc1)NC2=O` is strictly less than 70%?
YES

Would you kindly verify if cAMP production activity (%) of `Cc1cc(C(=O)N2CCOC2=O)cc(C)c1/C=C/S(=O)(=O)N1CCC2(CC1)N=C(C1CCCCC1)NC2=O` is strictly less than 70%?
YES

Would you kindly verify if cAMP production activity (%) of Cc1cc(OCCC(O)CO)ccc1/C=C/S(=O)(=O)N1CCC2(CC1)N=C(c1cccc(C(F)(F)F)c1)NC2=O (stereo not shown) is strictly less than 70%?
NO

Would you kindly verify if cAMP production activity (%) of O=C1NC(C2CCCCC2)=NC12CCCN(S(=O)(=O)c1cccc(Cl)c1)C2 (stereo not shown) is strictly less than 70%?
YES

Would you kindly verify if cAMP production activity (%) of `Cc1cc(S(=O)(=O)NCC(F)(F)F)ccc1CCS(=O)(=O)N1CCC2(CC1)N=C(c1cccc(C(F)(F)F)c1)NC2=O` is strictly less than 70%?
NO

----------
target-desc: human PTH1 receptor (Homo sapiens, UniProt Q03431)
Sequence (Q03431 27-593): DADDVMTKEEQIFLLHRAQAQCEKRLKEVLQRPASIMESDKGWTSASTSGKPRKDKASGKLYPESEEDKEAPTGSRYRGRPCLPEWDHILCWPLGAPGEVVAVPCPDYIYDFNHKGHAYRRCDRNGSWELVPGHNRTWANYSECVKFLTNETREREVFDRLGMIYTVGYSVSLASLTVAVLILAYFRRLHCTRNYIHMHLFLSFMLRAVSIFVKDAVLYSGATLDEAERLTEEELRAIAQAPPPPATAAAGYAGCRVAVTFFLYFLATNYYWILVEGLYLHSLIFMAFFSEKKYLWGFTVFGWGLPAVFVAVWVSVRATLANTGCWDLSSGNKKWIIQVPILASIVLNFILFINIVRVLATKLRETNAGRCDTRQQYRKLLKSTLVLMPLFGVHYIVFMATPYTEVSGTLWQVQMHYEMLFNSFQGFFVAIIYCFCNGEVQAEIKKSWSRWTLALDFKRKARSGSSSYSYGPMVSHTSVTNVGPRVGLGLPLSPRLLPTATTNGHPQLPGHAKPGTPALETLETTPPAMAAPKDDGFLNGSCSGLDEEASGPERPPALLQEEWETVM
assay-info: In vitro cAMP signal activity in HKRK-B7 cells (LLC-PK1 cells overexpressing the human PTH1 receptor)
Assay type: cell-based
experimental-conditions: HKRK-B7 cells; compound at 1×10^−3 M; cAMP produced as percentage of that produced by hPTH(1-34) at 100 nM
metric: cAMP production activity (%)
Numbers only; they are read as %.

Reported cAMP production activity (%) for human PTH1 receptor (Homo sapiens, UniProt Q03431), given `Cc1cc(C2=NC3(CCN(S(=O)(=O)CCc4ccc(C(=O)N(C)C)cc4C)CC3)C(=O)N2)ccc1Cl` ?
76

Reported cAMP production activity (%) for human PTH1 receptor (Homo sapiens, UniProt Q03431), given `Cc1cc(C(=O)N(C)C)ccc1-c1cccc(S(=O)(=O)N2CCC3(CC2)N=C(c2cccc(OC(F)(F)F)c2)NC3=O)c1` ?
28

Reported cAMP production activity (%) for human PTH1 receptor (Homo sapiens, UniProt Q03431), given `Cc1cc(C(=O)N2CCC(O)(CF)CC2)cc(C)c1/C=C/S(=O)(=O)N1CCC2(CC1)N=C(c1ccc(Cl)c(Cl)c1)NC2=O` ?
98

----------
Kindly supply the reported cAMP production activity (%) values for the records listed here.
target-desc: human PTH1 receptor (Homo sapiens, UniProt Q03431)
assay-info: In vitro cAMP signal activity in HKRK-B7 cells (LLC-PK1 cells overexpressing the human PTH1 receptor)
Type: cell-based
experimental-conditions: HKRK-B7 cells; compound at 1×10^−3 M; cAMP produced as percentage of that produced by hPTH(1-34) at 100 nM
# output: numeric value plus its unit

So what does the record say about cAMP production activity (%) for Cc1cc(C(=O)N2CCC(O)CC2)cc(C)c1/C=C/S(=O)(=O)N1CCC2(CC1)N=C(c1cccc(C(F)(F)F)c1)NC2=O [Compound 384] ?
61%

So what does the record say about cAMP production activity (%) for Cc1cc(C(=O)N2CCC(O)CC2)cc(C)c1/C=C/S(=O)(=O)N1CCC2(CC1)N=C(c1cccc(OC(F)(F)F)c1)NC2=O [Compound 400] ?
76%

So what does the record say about cAMP production activity (%) for Cc1cc(N(C)C(N)=O)cc(C)c1/C=C/S(=O)(=O)N1CCC2(CC1)N=C(c1cccc(-c3cccc(-c4ccccc4)c3)c1)NC2=O [Compound 1157] ?
44%

So what does the record say about cAMP production activity (%) for Cc1cc(C(=O)N(C)C)ccc1CCS(=O)(=O)N1CCC2(CC1)N=C(c1cccc(COCC(F)(F)C(F)F)c1)NC2=O [Compound 170] ?
77%
